Where these numbers come from: a melting point compilation (Tetko et al.)

Value type: melting point

Worked set:
1. NC(=NO)c1ccc(Cl)cc1Cl	149 to 151 °C
2. CCOCc1nc2c(N)nc3cc(Br)ccc3c2n1CC1CCN(C(=O)CC(C)C)CC1	199 to 200 °C
3. COc1cc(OC)c(/C=C/C(c2ccc(OC)c(NC(=O)CC(=O)O)c2)S(=O)(=O)C(/C=C/c2c(OC)cc(OC)cc2OC)c2ccc(OC)c(NC(=O)CC(=O)O)c2)c(OC)c1 (stereo not given)	118 to 121 °C

Documented melting point of CCCCCCCCCCCCCCCC(=O)OCC(CSCC(NC(=O)OCc1cccc2c1Cc1ccccc1-2)C(=O)O)OC(=O)CCCCCCCCCCCCCCC (mixture of isomers) : 82 to 84 °C

So for "CC(C)(C)c1cc(-c2cc(C(C)(C)C)cc(C(C)(C)C)c2Op2oc3c(C(C)(C)C)cc(C(C)(C)C)cc3c3cc(C(C)(C)C)cc(C(C)(C)C)c3o2)c(O)c(C(C)(C)C)c1" , the logged melting point turned out to be 245 to 250 °C

The compound listed as "COc1ccccc1C(=C/C=C/C(=O)O)c1ccccc1OC" has a reported melting point of 196 to 197 °C

----------
Each item that follows carries a reported melting point.

Form: compound = O=S(c1cc(C(F)(F)F)[nH]c1-c1ccc(Cl)cc1)C(F)(F)F (stereo unspecified) ; melting point = 198 to 200 °C

Note to self: melting point recorded for "CC(C)[C@H](NC(=O)N(C)Cc1cscn1)C(=O)N[C@@H](Cc1ccccc1)[C@H](O)[C@@H](O)[C@H](Cc1ccccc1)NC(=O)[C@@H](NC(=O)N(C)Cc1csc(N)n1)C(C)C" was 118 to 120 °C

For record "CCC1=C(C#N)c2cc3c(c(O)c2CC1)C(=O)c1c(O)cccc1C3=O" the listed melting point is 227 to 228 °C

// melting point value for "O=C(CC(CC(=O)OCc1cc(Br)cc(Br)c1O)C(=O)OCc1cc(Br)cc(Br)c1O)OCc1cc(Br)cc(Br)c1O" : 100 to 102 °C

For "CCCCCCCCCCCCCCCCCCOc1ccc(OCCCOc2ccc(OCc3ccccc3)cc2)c(C(=O)N(CC(=O)OCC)CC(=O)OCC)c1" the compound record lists melting point as 54 to 55 °C

The recorded melting point for entry "CSc1ccccc1C(=O)Nc1ccc(C(=O)N2Cc3cccn3Cc3ccccc32)cc1" equals 171 to 174 °C

Consider CC(=O)C1CCC2C3CCC4CC(O)(C#Cc5cccnc5)CCC4(C)C3CCC12C (stereo unspecified) . Its measured melting point is 230 to 235 °C

Lab note: COc1cc(C2c3cc4c(cc3C(NC(=O)CNCCCCN(CCCNC(=O)OCc3ccccc3)C(=O)OCc3ccccc3)C3COC(=O)C23)OCO4)cc(OC)c1O (stereo unspecified) gave melting point of 199 °C

----------
Value type: melting point

Examples from the recorded data:
1. CC(=O)OCC(CNC(=O)c1c(I)c(NC(=O)C2CCCO2)c(I)c(C(=O)NCC(COC(C)=O)OC(C)=O)c1I)OC(C)=O (centres undefined)	101 to 104 °C
2. O=C(Nc1c(Cl)cncc1Cl)C(=O)c1cn(Cc2c(F)cccc2[N+](=O)[O-])c2c(O)cccc12	308 to 310 °C
3. O=C(O)CCC(Cc1cccc(Cl)c1)(C(=O)C=Cc1ccc(Cl)cc1)c1ccccc1 (centres undefined)	137 to 139 °C
4. CC(C)CCCC(C)C1CCC2C3CC=C4CC(N(CCCNC(=O)CCNC(=O)CCCCCNc5ccc([N+](=O)[O-])cc5[N+](=O)[O-])S(=O)(=O)c5ccccc5[N+](=O)[O-])CCC4(C)C3CCC12C (centres undefined)	86 to 87 °C
5. CCCCCCCCCCCCN(CCCCCCCCCCCC)S(=O)(=O)c1cc(NS(=O)(=O)c2ccc(NC(C)=O)c3c(O)c(N=Nc4ccccc4OC)ccc23)c(O)c2ccccc12	200 to 202 °C
6. COc1cc(C(=O)c2c(C)c(C(=O)OCc3ccccc3)c3cc(N(C)C)ccn23)ccc1[N+](=O)[O-]	167 °C
7. COc1ccc([N+](=O)[O-])cc1C(/C=C/c1ccc(I)cc1)S(=O)(=O)C(/C=C/c1ccc(I)cc1)c1cc([N+](=O)[O-])ccc1OC (centres undefined)	218 to 221 °C
8. COc1cc(OC)c(/C=C/C(c2ccc(OC)c(NC(N)=O)c2)S(=O)(=O)C(/C=C/c2c(OC)cc(OC)cc2OC)c2ccc(OC)c(NC(N)=O)c2)c(OC)c1 (centres undefined)	218 to 220 °C

Moving on to another molecule below.
The reported melting point of the molecule "O=c1cc(-c2ccc(OCCOCCOCCOCCOCCOCCOCCOCCOCCOc3ccc(-c4cc(=O)c5c(O)cc(O)cc5o4)cc3)cc2)oc2cc(O)cc(O)c12" was 135 to 137 °C
